Assay: Cycloheximide Counterscreen for Small Molecule Inhibitors of Shiga Toxin; note: read at 38.3 µM for the half of the compounds with a filed dose; 0% is about no effect
Settings: cell reporter, cycloheximide protein synthesis inhibition counterscreen
The campaign covered roughly 300,000 compounds. About 37,000 (12%) were called active. Cut-off read from the data, not from the text of the source: active = max response mostly above about 13% (no sharp cut-off); inactive = mostly below about 14%. The sample holds actives, similar compounds and a random draw of the others, so the mix is not that of the screen.
Output constraint: value belongs to t = active, f = inactive

Q: Which outcome was entered for the compound CC1CCC(NC(=O)C2c3ccccc3C(=O)N2Cc2ccc3c(c2)OCO3)CC1 (stereo not given) in this test?
A: f

Q: Per the records of this test, what outcome belongs to O=C1c2ccccc2C(=O)N1CCCc1nc(-c2ccccc2)no1 ?
A: f

Q: Identify the outcome logged in this assay for the compound shown: COCCNC(=S)N(CCc1c(C)[nH]c2ccc(C)cc12)Cc1cccnc1
A: f

* * *

Test: Cycloheximide Counterscreen for Small Molecule Inhibitors of Shiga Toxin; note: read at 38.3 µM for the half of the compounds with a filed dose; 0% is about no effect
Settings: cell reporter, cycloheximide protein synthesis inhibition counterscreen; hits give high values
Screen size: about 300,000 compounds; about 37,000 (12%) were called active. This excerpt belongs to a sample that is enriched for actives.
outcome-measure: max response (%)
Field: numeric (%). Do not append units.

Worked set:
INSERT INTO results (compound, observed_value) VALUES
  ('O=C(CN1CCN(c2ccccc2F)CC1)c1ccc2c(c1)OCO2', 16.8),
  ('CCn1c(=O)c2cc(C(=O)Nc3cccc(C(C)=O)c3)sc2c2ccccc21', -2.44);

Q: Would you mind telling me what max response value was observed for COc1ccc(CCNC(=O)c2c(C)nn(-c3ccccc3)c2Cl)cc1 ?
A: -2.65

Q: Endpoint output: max response of O=C1C2C3C=CC(C4CC34)C2C(=O)N1c1nccs1 (stereo not drawn) . Value?
A: -4.99

Q: Item COc1cc(OC)c(C(=O)Nc2ccc(N(C)C)cc2)cc1OC has what recorded max response?
A: 40.8

Q: Consider the compound shown here: CC1CCC(N2CC(=O)N(Cc3ccc4c(c3)OCO4)C(c3ccc(F)cc3)C2=O)CC1 (stereo not drawn) What is its recorded max response?
A: -2.2

Q: // lookup max response for COc1ccc(Cl)cc1C(=O)NCC#N
A: -1.71

Q: What does the data say about its max response? Entry: Cc1cc(NC(=O)Nc2ccc(Cl)cc2)n(-c2ccccc2)n1
A: 1.95

Q: Please give the measured max response for this compound: Cc1ccc(C(=O)O/N=C(\N)c2ccccn2)cc1Cl
A: 13.6

Q: Which max response is reported for this compound? COc1cccc(N(CC(=O)NC2CCCC2)C(=O)CCCC(=O)Nc2ccccn2)c1
A: -1.64

Q: Using the record for CSc1ccccc1C(=O)Nc1cccc(C(C)=O)c1 , report its max response.
A: 11.9

Q: State the recorded max response for this entry: N/C(Cc1ccc([N+](=O)[O-])cc1)=N\OC(=O)COc1ccc2ccccc2c1
A: -3.82

Q: Consider the compound shown here: Cc1ccc(NC(=O)Nc2cc(-c3ccccc3)nn2C)cc1Cl What is its recorded max response?
A: 1.12

Q: Data request, read-out max response, for Cc1nn(-c2ccccc2)c(Cl)c1C(=O)Nc1ccccc1
A: 24.4

Q: I'd like to know its max response. The compound in question is N/C(=N\OC(=O)c1ccc([N+](=O)[O-])cc1)c1ccccn1
A: 42.7

Q: Query: max response; subject: O=C(CN1CCN(CC(=O)Nc2ccc3c(c2)OCO3)CC1)Nc1ccc(F)cc1
A: -2.15

Q: I'd like to know its max response. The compound in question is Cc1cc(OCC(=O)Nc2c(C)n(C)n(-c3ccccc3)c2=O)ccc1[N+](=O)[O-]
A: 1.26

Q: What does the data say about its max response? Entry: COc1ccc(C(=O)NC(C)Cn2nc(C)cc2C)cc1OC1CCN(C(C)=O)CC1 (stereo not drawn)
A: -1.29

Q: Report max response for COc1cc(OC)c(C(=O)NC2CC(C)(C)NC(C)(C)C2)cc1OC please.
A: -1.33

Q: Look up max response for this compound: N#Cc1ccccc1NC(=O)c1ccc2c(c1)OCO2
A: 24.8

Q: Recorded max response of Cc1nn(-c2ccccc2)c(CC(C)(C)C(=O)O)c1C(=O)O , please.
A: -4

Q: max response lookup needed for COc1ccc(C(=O)NNC(=O)c2cnccn2)cc1[N+](=O)[O-] , thanks.
A: 1.13

Q: May I ask what max response has been recorded for COc1cc(OC)c(C(=O)Nc2ccccc2-c2ccccc2)cc1OC ?
A: -1.49
